Where do these numbers come from? They come from patent US8921385B2.

assay-metric: melting point

Some entries whose results are on file:
Cc1ccc(CC(=O)NCc2cccc3nc(C)n(C4CCC(=O)NC4=O)c(=O)c23)cc1F (centres unmarked) [Example 6.44]; 264 to 266 °C
Cc1nc2cccc(Cl)c2c(=O)n1C1CCC(=O)NC1=O (centres unmarked) [Example 6.10]; 315 °C (dec.)
Cc1ccc(NC(=O)NCc2cccc3nc(C)n(C4CCC(=O)NC4=O)c(=O)c23)cc1Cl (centres unmarked) [Example 6.47]; 250 to 252 °C
Cc1nc2cccc(CNC(=O)c3ccccc3)c2c(=O)n1C1CCC(=O)NC1=O (centres unmarked) [Example 6.55]; 247 to 249 °C
Cc1nc2cccc(CNC(=O)CN(C)C)c2c(=O)n1C1CCC(=O)NC1=O (centres unmarked) [Example 6.35]; 275 °C (dec.)

Hi team, please reply with melting point for each item in this list.
1. Cc1cccc2nc(C)n([C@@]3(C)CCC(=O)NC3=O)c(=O)c12 [Example 6.7]
2. Cc1nc2cccc(CNC(=O)c3ccc(C(F)(F)F)cc3)c2c(=O)n1C1CCC(=O)NC1=O (centres unmarked) [Example 6.53]

A.
298 to 301 °C
253 to 255 °C

Hi team, please reply with melting point for each item in this list.
1. Cc1nc2cccc(CNC(=O)c3ccc(OC(F)(F)F)cc3)c2c(=O)n1C1CCC(=O)NC1=O (centres unmarked) [Example 6.54]
2. COCC(=O)Nc1cccc2nc(C)n(C3CCC(=O)NC3=O)c(=O)c12 (centres unmarked) [Example 6.20]
3. Cc1cccc(C(=O)NCc2cccc3nc(C)n(C4CCC(=O)NC4=O)c(=O)c23)c1 (centres unmarked) [Example 6.50]
4. Cc1nc2cccc(CNC(=O)Cc3ccc(Cl)cc3)c2c(=O)n1C1CCC(=O)NC1=O (centres unmarked) [Example 6.40]
5. CCCCCCC(=O)Nc1cccc2nc(C)n(C3CCC(=O)NC3=O)c(=O)c12 (centres unmarked) [Example 6.23]
6. Cc1ccc(NC(=O)NCc2cccc3nc(C)n(C4CCC(=O)NC4=O)c(=O)c23)cc1C (centres unmarked) [Example 6.48]

A.
1. 258 to 260 °C
2. 282 to 284 °C
3. 263 to 265 °C
4. 285 °C (dec.)
5. 230 to 232 °C
6. 241 to 243 °C
